Source listed as the supplement of paper PMC6555819.

test system: VDR homodimer (NR concentration 270 nM); experiment: PBM binding z-score (relative to random genomic background probes); higher = stronger binding; sequences stand for … in GC…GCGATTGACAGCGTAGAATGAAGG
PBM binding z-score values by entry
Give a plain numeric answer without units written out.

Worked set:
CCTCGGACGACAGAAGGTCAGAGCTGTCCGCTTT; 0.204
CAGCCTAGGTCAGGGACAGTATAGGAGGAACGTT; 0.0373
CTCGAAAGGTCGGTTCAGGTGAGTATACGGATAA; 2.34
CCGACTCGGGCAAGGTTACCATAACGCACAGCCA; -0.43
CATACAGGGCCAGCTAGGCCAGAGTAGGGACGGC; -0.491
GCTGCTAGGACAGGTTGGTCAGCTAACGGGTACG; -0.149

Returns the measured PBM binding z-score for the input sequence. Input: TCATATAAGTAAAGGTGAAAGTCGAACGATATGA
-0.0399

Another: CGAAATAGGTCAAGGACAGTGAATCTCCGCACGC
0.593

Another: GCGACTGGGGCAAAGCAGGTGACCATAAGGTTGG
-0.886

Another: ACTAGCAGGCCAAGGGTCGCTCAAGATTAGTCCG
-0.246

Another: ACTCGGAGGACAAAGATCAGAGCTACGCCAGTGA
-0.571
